- TEST_PROTOCOL: Plasma pharmacokinetics and urinary elimination after acute and chronic intraperitoneal administration
- Format: in vivo, FVB mice
- RECORDED_CONDITIONS: FVB, mouse, plasma, ip; i.p. 30 mg/Kg/day, chronic; read-out: F % (bioavailability)
- Protocol: In this study, 18 mice received a single dose and were sampled within 24 h, and the other 18 were treated every day for three weeks (qdx21) and sampled on day 21. Mice were monitored daily for clinical signs of toxicity and distress, and body weight was measured at least twice a week. Blood samples were collected after both treatment regimens at 15 and 30 min, and 1, 3, 8, and 24 h post dose. Three mice were analyzed for each time point. […]

{"MOLECULAR_STRING": "COCCNC(=N)NCCC[C@H](N)C(=O)NS(C)(=O)=O", "UNIT_OF_MEASURE": "%", "bioavailability at 21 days": 59}

====

- TEST_PROTOCOL: Plasma pharmacokinetics and urinary elimination after single oral and intravenous administration
- Format: in vivo, FVB mice
- RECORDED_CONDITIONS: FVB, mouse, plasma, po; p.o. 60 mg/Kg, 8 h post dose
READOUT: concentration at 8 h

{"MOLECULAR_STRING": "COCCNC(=N)NCCC[C@H](N)C(=O)NS(C)(=O)=O", "VALUE_OBSERVED": "29 ng/mL"}

====

- TEST_PROTOCOL: Urinary metabolites in 24 h urine by HPLC-MS/MS
- Assay type: in vivo, FVB mice
- RECORDED_CONDITIONS: after oral ZST152, total dose 1.158 mg, mouse #3, 24 h urine

{"COMPOUND": "COCCNC(=N)NCCC[C@H](N)C=NO [M6]", "Amount Recovered in urine, µg": 0.16}
{"COMPOUND": "COCCNC(=N)N [M1]", "Amount Recovered in urine, µg": 1.02}
{"COMPOUND": "COCCNC(=N)NCCCC(=O)O [M4]", "Amount Recovered in urine, µg": 87.8}
{"COMPOUND": "COCCNC(=N)NCCC[C@H](N)C(=O)O [M7]", "Amount Recovered in urine, µg": 2.58}
{"COMPOUND": "COCCNC(=N)NCCCC=O [M2]", "Amount Recovered in urine, µg": 0.27}
{"COMPOUND": "COCCNC(=N)NCCCCO [M3]", "Amount Recovered in urine, µg": 49.1}
{"COMPOUND": "COCCNC(=N)NCCC[C@H](N)c1noc(=O)[nH]1 [ZST152]", "Amount Recovered in urine, µg": 75.0}

====

- TEST_PROTOCOL: Plasma pharmacokinetics and urinary elimination after acute and chronic intraperitoneal administration
- Type: in vivo, FVB mice
- RECORDED_CONDITIONS: FVB, mouse, plasma, ip; i.p. 30 mg/Kg/day, chronic

{"MOLECULAR_STRING": "COCCNC(=N)NCCC[C@H](N)C(=O)NS(C)(=O)=O", "AUC(0-inf) (ng·h/mL)": 12700}

====

- TEST_PROTOCOL: Plasma pharmacokinetics and urinary elimination after acute and chronic intraperitoneal administration
- Assay type: in vivo, FVB mice
- RECORDED_CONDITIONS: FVB, mouse, plasma, ip; i.p. 30 mg/Kg, acute
- Description: In this study, 18 mice received a single dose and were sampled within 24 h, and the other 18 were treated every day for three weeks (qdx21) and sampled on day 21. Mice were monitored daily for clinical signs of toxicity and distress, and body weight was measured at least twice a week. Blood samples were collected after both treatment regimens at 15 and 30 min, and 1, 3, 8, and 24 h post dose. Three mice were analyzed for each time point. […]

{"MOLECULAR_STRING": "COCCNC(=N)NCCC[C@H](N)C(=O)NS(C)(=O)=O", "UNIT_OF_MEASURE": "min", "Tmax": 15}

====

- TEST_PROTOCOL: Plasma pharmacokinetics and urinary elimination after acute and chronic intraperitoneal administration
- Format: in vivo, FVB mice
- RECORDED_CONDITIONS: FVB, mouse, plasma, ip, 30 mg/kg, i.p. 30 mg/Kg, acute; read-out: AUC 0-8h
READOUT: AUC(0-t)

{"MOLECULAR_STRING": "COCCNC(=N)NCCC[C@H](N)C(=O)NS(C)(=O)=O", "READOUT": "AUC(0-t)", "VALUE_OBSERVED": "14300 ng·h/mL"}

====

- TEST_PROTOCOL: Plasma pharmacokinetics and urinary elimination after acute and chronic intraperitoneal administration
- Assay type: in vivo, FVB mice
- RECORDED_CONDITIONS: FVB, mouse, plasma, ip; i.p. 30 mg/Kg, acute
READOUT: half-life

{"COMPOUND": "COCCNC(=N)NCCC[C@H](N)C(=O)NS(C)(=O)=O [ZST316]", "VALUE_OBSERVED": "342 min"}

====

- TEST_PROTOCOL: Plasma pharmacokinetics and urinary elimination after acute and chronic intraperitoneal administration
- Type: in vivo, FVB mice
- RECORDED_CONDITIONS: FVB, mouse, plasma, ip; i.p. 30 mg/Kg, acute (single dose)

{"MOLECULAR_STRING": "COCCNC(=N)NCCC[C@H](N)C(=O)NS(C)(=O)=O", "Cmax": "40200 ng/mL"}

====

- TEST_PROTOCOL: Plasma pharmacokinetics and urinary elimination after acute and chronic intraperitoneal administration
- Assay type: in vivo, FVB mice
- RECORDED_CONDITIONS: FVB, mouse, plasma, ip, 30 mg/kg/day, i.p. 30 mg/Kg/day, chronic; read-out: AUC 0-last
- Method: In this study, 18 mice received a single dose and were sampled within 24 h, and the other 18 were treated every day for three weeks (qdx21) and sampled on day 21. Mice were monitored daily for clinical signs of toxicity and distress, and body weight was measured at least twice a week. Blood samples were collected after both treatment regimens at 15 and 30 min, and 1, 3, 8, and 24 h post dose. Three mice were analyzed for each time point. […]

{"MOLECULAR_STRING": "COCCNC(=N)NCCC[C@H](N)C(=O)NS(C)(=O)=O", "UNIT_OF_MEASURE": "ng·h/mL", "AUC(0-t)": 12600}

====

Recorded AUC(0-t), one value per entry.
- TEST_PROTOCOL: Plasma pharmacokinetics and urinary elimination after single oral and intravenous administration
- Format: in vivo, FVB mice
- RECORDED_CONDITIONS: FVB, mouse, plasma, iv, 30 mg/kg, i.v. 30 mg/Kg; read-out: AUC 0-last
READOUT: AUC(0-t) (ng·h/mL)

{"MOLECULAR_STRING": "COCCNC(=N)NCCC[C@H](N)C(=O)NS(C)(=O)=O", "VALUE_OBSERVED": 21500}
{"MOLECULAR_STRING": "COCCNC(=N)NCCC[C@H](N)c1noc(=O)[nH]1", "VALUE_OBSERVED": 9250}

====

- TEST_PROTOCOL: Urinary metabolites in 24 h urine by HPLC-MS/MS
- Type: in vivo, FVB mice
- RECORDED_CONDITIONS: after oral ZST152, total dose 1.158 mg, mouse #3, 24 h urine
Recorded % of Dose recovered in urine, one value per entry.

{"MOLECULAR_STRING": "COCCNC(=N)NCCC[C@H](N)c1noc(=O)[nH]1", "UNIT_OF_MEASURE": "%", "% of Dose recovered in urine": 6.5}
{"MOLECULAR_STRING": "COCCNC(=N)NCCCC(=O)O", "UNIT_OF_MEASURE": "%", "% of Dose recovered in urine": 7.6}
{"MOLECULAR_STRING": "COCCNC(=N)NCCC[C@H](N)C(=O)O", "UNIT_OF_MEASURE": "%", "% of Dose recovered in urine": 0.22}
{"MOLECULAR_STRING": "COCCNC(=N)NCCCC=O", "UNIT_OF_MEASURE": "%", "% of Dose recovered in urine": 0.023}
{"MOLECULAR_STRING": "COCCNC(=N)NCCCCO", "UNIT_OF_MEASURE": "%", "% of Dose recovered in urine": 4.2}
{"MOLECULAR_STRING": "COCCNC(=N)N", "UNIT_OF_MEASURE": "%", "% of Dose recovered in urine": 0.088}
{"MOLECULAR_STRING": "COCCNC(=N)NCCC[C@H](N)C=NO", "UNIT_OF_MEASURE": "%", "% of Dose recovered in urine": 0.014}

====

- TEST_PROTOCOL: Plasma pharmacokinetics and urinary elimination after single oral and intravenous administration
- Type: in vivo, FVB mice
- RECORDED_CONDITIONS: FVB, mouse, plasma, iv; i.v. 30 mg/Kg
Recorded Tmax, one value per entry.

{"COMPOUND": "COCCNC(=N)NCCC[C@H](N)C(=O)NS(C)(=O)=O [ZST316]", "UNIT_OF_MEASURE": "min", "Tmax": 5}
{"COMPOUND": "COCCNC(=N)NCCC[C@H](N)c1noc(=O)[nH]1 [ZST152]", "UNIT_OF_MEASURE": "min", "Tmax": 5}
